System: MDA-MB-453
Test: normalised viability (% of control), CellTiter-Blue; higher = more viable cells (about 100 = DMSO control)
Conditions: 10 nM; incubation time: 72 h
Listing of entries alongside the reported normalised viability.

| COMPOUND | TARGET UNDER TEST | normalised viability / % |
| --- | --- | --- |
| Oc1nc(-c2ccc(C(F)(F)F)cc2)nc2c1CSCC2 [XAV-939] | MDA-MB-453 | 101 |
| CC(C)Cn1cnc2c(N)nc3ccccc3c21 [Imiquimod] | MDA-MB-453 | 112 |
| CN(N=O)C(=O)N[C@@H](C=O)[C@@H](O)[C@H](O)[C@H](O)CO [Streptozocin] | MDA-MB-453 | 112 |
| O=C1CCC(N2C(=O)c3ccccc3C2=O)C(=O)N1 (centres undefined) [Thalidomide] | MDA-MB-453 | 98.3 |

Taken from the supplement of paper PMC4862054.
